src = ChEMBL document CHEMBL1250505

Test system: Bacillus subtilis
experiment.notes: Antibacterial activity against Bacillus subtilis at 50 ug/ml after 24 to 48 hrs by cup-plate method
Assay type: functional
run.conditions: read-out: IZ
Give zone of inhibition at 50 µg/mL for every item shown.
Include the unit after the number when you answer.

[in] Give the observed zone of inhibition at 50 µg/mL of "COC(=O)CCCSc1nnc(-c2cccc(-c3cccc(Cl)c3)c2)o1" for Bacillus subtilis.
[out] 11 mm

[in] Tell me zone of inhibition at 50 µg/mL of "FCCCCSc1nnc(-c2cccc(-c3ccccc3F)c2)o1" when tested on Bacillus subtilis.
[out] 20 mm

[in] Look up and report zone of inhibition at 50 µg/mL, with Bacillus subtilis as system, for "COc1ccccc1-c1cccc(-c2n[nH]c(=S)o2)c1"
[out] 10 mm

[in] Report value only: zone of inhibition at 50 µg/mL, Bacillus subtilis, "COC(=O)CCCSc1nnc(-c2cccc(-c3ccccc3F)c2)o1"
[out] 9 mm

[in] Print Bacillus subtilis zone of inhibition at 50 µg/mL for "Fc1ccccc1-c1cccc(-c2n[nH]c(=S)o2)c1" .
[out] 12 mm
